Values from paper PMC3612826

Target: recombinant HIV-1 IN (Human immunodeficiency virus type 1 group M subtype B, UniProt P12497)
Assay: biochemical
pIC50: −log10 of the molar value.
reported-endpoint: pIC50

O=[N+]([O-])c1cc([N+](=O)[O-])c2no[n+]([O-])c2c1-[n+]1ccccc1 : 4.12
